Data provenance is PubChem BioAssay AID2061306.

- assay name: Identification of antibody-drug conjugate (ADC) payloads which are substrates of ATP-binding cassette drug efflux transporters: ABCB1-HEK293-pcDNA cell line
- condition: HEK293 empty-vector (pcDNA) control viability, CellTiter-Glo, 48 h
Inconclusive results are not listed. The source made the active and inactive calls. Calls follow the shape of the dose curve; as a rule, active = well fitted inhibition curve with a large enough effect; inconclusive = small, poorly fitted or top-dose-only effect; inactive = flat fitted curve, though single readings scatter.
quantity kind: Potency

Look up Potency for this compound: CC(C)(C)OC(=O)Nc1ccc2[nH]c(C(=O)N3C[C@@H](CCl)c4c3cc(O)c3ccccc43)cc2c1
8.4 nM (active)

Look up Potency for this compound: CN(C)CCOc1ccc2[nH]c(C(=O)N3C[C@@H](CCl)c4c3cc(O)c3ccccc43)cc2c1
0.4 nM (active)

Look up Potency for this compound: COc1cccc2c1C(=O)c1c(O)c3c(c(O)c1C2=O)C[C@@](O)(C(=O)CO)C[C@@H]3O[C@H]1C[C@H](N)[C@H](O)[C@H](C)O1
29.8 nM (active)

Look up Potency for this compound: CCN(C(C)=O)[C@H]1CO[C@@H](O[C@H]2[C@H](O[C@H]3C#C/C=C\C#C[C@]4(O)CC(=O)C(NC(=O)OC)=C3/C4=C\CSSSC)O[C@H](C)[C@@H](NO[C@H]3C[C@H](O)[C@H](SC(=O)c4c(C)c(I)c(O[C@@H]5O[C@@H](C)[C@H](O)[C@@H](OC)[C@H]5O)c(OC)c4OC)[C@@H](C)O3)[C@@H]2O)C[C@@H]1OC
1.5 nM (active)

Look up Potency for this compound: CCc1c2c(nc3ccc(O)cc13)-c1cc3c(c(=O)n1C2)COC(=O)[C@]3(O)CC
4.7 nM (active)

Look up Potency for this compound: CCN[C@H]1CO[C@@H](O[C@H]2[C@H](O[C@H]3C#C/C=C\C#C[C@]4(O)CC(=O)C(NC(=O)OC)=C3/C4=C\CSSSC)O[C@H](C)[C@@H](NO[C@H]3C[C@H](O)[C@H](SC(=O)c4c(C)c(I)c(O[C@@H]5O[C@@H](C)[C@H](O)[C@@H](OC)[C@H]5O)c(OC)c4OC)[C@@H](C)O3)[C@@H]2O)C[C@@H]1OC
0.2 nM (active)
